# System: OVCAR-5
# assay: Growth inhibition of human OVCAR5 cells by sulforhodamine B assay
# Assay type: functional
# measurement.conditions: read-out: pLC50 (the source's name) (converted)
measured.parameter: CC50 (µM)

>>> print(df.to_string())
                        structure_as_smiles  value_prefix  quantitative_readout
0  C/C=C(/C)C(=O)O[C@@H]1CC(C)(C)C[C@H]2C3=CC[C@@H]4[C@@]5(C)CCC(=O)C(C)(C)[C@@H]5CC[C@@]4(C)[C@]3(C)CC[C@@]12C(=O)O             >                   100
1  CC(C)=CC(=O)O[C@@H]1CC(C)(C)C[C@H]2C3=CC[C@@H]4[C@@]5(C)CC[C@H](O)C(C)(C)[C@@H]5CC[C@@]4(C)[C@]3(C)CC[C@@]12C(=O)O             =                   100
2  CC1(C)C[C@@H](O)[C@]2(C(=O)O)CC[C@]3(C)C(=CC[C@@H]4[C@@]5(C)C/C(=C\C=C\c6ccccc6)C(=O)C(C)(C)[C@@H]5CC[C@]43C)[C@@H]2C1             =                  33.9
3  C/C=C(/C)C(=O)O[C@@H]1CC(C)(C)C[C@H]2C3=CC[C@@H]4[C@@]5(C)CC[C@H](O)C(C)(C)[C@@H]5CC[C@@]4(C)[C@]3(C)CC[C@@]12C(=O)O             =                  45.7
4  CC(C)=CC(=O)O[C@@H]1CC(C)(C)C[C@H]2C3=CC[C@@H]4[C@@]5(C)CCC(=O)C(C)(C)[C@@H]5CC[C@@]4(C)[C@]3(C)CC[C@@]12C(=O)O             >                   100
